Numbers sourced from patent US20090082337A1.

Tested on: Streptococcus faecalis (IFO 12964)
Assay: In vitro anti-bacterial activity (MIC90), Gram-positive bacteria
Assay type: cell-based
Conditions: Enterococcus faecalis, IFO12964, Gram-positive reference strain
Here the recorded MIC90 is given for each entry.
Write the value in µg/mL as a bare number.

Record excerpt, results attached:
>  <COMPOUND>
C[C@@H]1CN(c2c(F)c(N)c3c(=O)c(C(=O)O)cn(C4CC4)c3c2F)C[C@H](C)N1 [Sparfloxacin, sparfloxacin]

>  <TARGET>
Streptococcus faecalis (IFO 12964)

>  <MIC90 / µg/mL>
0.78

$$$$
>  <COMPOUND>
N[C@@H]1CCCCN(c2c(F)cc3c(=O)c(C(=O)O)cn(C4CC4)c3c2Cl)C1 [Compound Having Formula IV]

>  <TARGET>
Streptococcus faecalis (IFO 12964)

>  <MIC90 / µg/mL>
0.1

$$$$
>  <COMPOUND>
CC1CCc2c(N3CCC(O)CC3)c(F)cc3c(=O)c(C(=O)O)cn1c23 (stereo not shown) [Nadifloxacin, nadifloxacin]

>  <TARGET>
Streptococcus faecalis (IFO 12964)

>  <MIC90 / µg/mL>
0.78

$$$$

// next item, MIC90 requested
stdin: Sample CC1COc2c(N3CCN(C)CC3)c(F)cc3c(=O)c(C(=O)O)cn1c23 (stereo not shown) [Ofloxacin, ofloxacin] — what was its MIC90?
stdout: 1.56

###

# key: entry, value: MIC90
Tested on: Escherichia coli (O-1)
Assay: In vitro anti-bacterial activity (MIC90), Gram-negative bacteria
Type: cell-based
Conditions: Gram-negative reference strain
Entry rule: numbers only, all in µg/mL.

>  <COMPOUND>
N[C@@H]1CCCCN(c2c(F)cc3c(=O)c(C(=O)O)cn(C4CC4)c3c2Cl)C1

>  <DISPLAY UNIT>
µg/mL

>  <MIC90>
0.1

$$$$

stdin: Sample CC1COc2c(N3CCN(C)CC3)c(F)cc3c(=O)c(C(=O)O)cn1c23 (stereo not shown) — what was its MIC90?
stdout: 0.05

stdin: Can you look up the measured MIC90 of CC1CCc2c(N3CCC(O)CC3)c(F)cc3c(=O)c(C(=O)O)cn1c23 (stereo not shown) for me?
stdout: 0.2

stdin: Dear colleague, I am looking for the recorded MIC90 of the following compound: C[C@@H]1CN(c2c(F)c(N)c3c(=O)c(C(=O)O)cn(C4CC4)c3c2F)C[C@H](C)N1
stdout: 0.012

###

System: Staphylococcus aureus (No. 395)
Test: In vitro anti-bacterial activity (MIC90), methicillin-resistant Staphylococcus aureus isolates
Type: cell-based
Settings: methicillin-resistant Staphylococcus aureus (No. 395)
ASSAY METRIC: MIC90 (µg/mL)
Give the value, in units of µg/mL, as a plain number.

Worked cases, answers included:
>  <MOLECULE>
N[C@@H]1CCCCN(c2c(F)cc3c(=O)c(C(=O)O)cn(C4CC4)c3c2Cl)C1

>  <TARGET>
Staphylococcus aureus (No. 395)

>  <DISPLAY UNIT>
µg/mL

>  <MIC90>
0.006

$$$$
>  <MOLECULE>
CC1CCc2c(N3CCC(O)CC3)c(F)cc3c(=O)c(C(=O)O)cn1c23 (stereo not shown)

>  <TARGET>
Staphylococcus aureus (No. 395)

>  <DISPLAY UNIT>
µg/mL

>  <MIC90>
0.024

$$$$
>  <MOLECULE>
C[C@@H]1CN(c2c(F)c(N)c3c(=O)c(C(=O)O)cn(C4CC4)c3c2F)C[C@H](C)N1

>  <TARGET>
Staphylococcus aureus (No. 395)

>  <DISPLAY UNIT>
µg/mL

>  <MIC90>
0.05

$$$$

We now examine a further molecule.
stdin: I have this molecule here, CC1COc2c(N3CCN(C)CC3)c(F)cc3c(=O)c(C(=O)O)cn1c23 (stereo not shown) , and I need its recorded MIC90.
stdout: 0.2

###

System: Bacteroides fragillis (GAI 0675)
Overview of recorded MIC90 for various compounds
Express it in µg/mL; write the number only.

Some solved entries appear below for comparison.
>  <COMPOUND>
CC1CCc2c(N3CCC(O)CC3)c(F)cc3c(=O)c(C(=O)O)cn1c23 (stereo not shown)

>  <TARGET>
Bacteroides fragillis (GAI 0675)

>  <ASSAY METRIC>
MIC90

>  <DISPLAY UNIT>
µg/mL

>  <OBS VALUE>
1.56

$$$$
>  <COMPOUND>
CC1COc2c(N3CCN(C)CC3)c(F)cc3c(=O)c(C(=O)O)cn1c23 (stereo not shown)

>  <TARGET>
Bacteroides fragillis (GAI 0675)

>  <ASSAY METRIC>
MIC90

>  <DISPLAY UNIT>
µg/mL

>  <OBS VALUE>
1.56

$$$$
>  <COMPOUND>
C[C@@H]1CN(c2c(F)c(N)c3c(=O)c(C(=O)O)cn(C4CC4)c3c2F)C[C@H](C)N1

>  <TARGET>
Bacteroides fragillis (GAI 0675)

>  <ASSAY METRIC>
MIC90

>  <DISPLAY UNIT>
µg/mL

>  <OBS VALUE>
0.78

$$$$

Now for another entry.
stdin: Enter reported MIC90 observed with Bacteroides fragillis (GAI 0675) for N[C@@H]1CCCCN(c2c(F)cc3c(=O)c(C(=O)O)cn(C4CC4)c3c2Cl)C1
stdout: 0.1

###

MIC90 values, listed per item
Test system: Acinetobacter calcoaceticus (IFO 12552)
Experiment: In vitro anti-bacterial activity (MIC90), Gram-negative bacteria
Type: cell-based
Conditions: IFO12552, Gram-negative reference strain
Text: In yet another aspect, said another quinolone has a MIC90 value for a Gram-negative bacterium that is lower than that of the fluoroquinolone having Formula I, II, III, IV, V, VI, VII, or VIII for the same bacterium, said fluoroquinolone being included in the composition. MIC90 is the minimum concentration of the active compound required to inhibit ninety percent of the growth of a specified pathogen, in μg/ml. […]

>  <COMPOUND>
N[C@@H]1CCCCN(c2c(F)cc3c(=O)c(C(=O)O)cn(C4CC4)c3c2Cl)C1

>  <OBS VALUE>
0.39 µg/mL

$$$$
>  <COMPOUND>
CC1COc2c(N3CCN(C)CC3)c(F)cc3c(=O)c(C(=O)O)cn1c23 (stereo not shown)

>  <OBS VALUE>
0.39 µg/mL

$$$$
>  <COMPOUND>
CC1CCc2c(N3CCC(O)CC3)c(F)cc3c(=O)c(C(=O)O)cn1c23 (stereo not shown)

>  <OBS VALUE>
0.78 µg/mL

$$$$

# next compound below
stdin: Data request, read-out MIC90, for C[C@@H]1CN(c2c(F)c(N)c3c(=O)c(C(=O)O)cn(C4CC4)c3c2F)C[C@H](C)N1
stdout: 0.024 µg/mL

###

Quick reference for MIC90 among some compounds
Test system: Clostridium perfringens (KZ 210)
Assay: microbe, parasite or virus in culture
Assay type: cell-based
The answer is to be given in µg/mL; state only the numeric part.

>  <COMPOUND>
CC1CCc2c(N3CCC(O)CC3)c(F)cc3c(=O)c(C(=O)O)cn1c23 (stereo not shown)

>  <MIC90 (µg/mL)>
0.2

$$$$
>  <COMPOUND>
CC1COc2c(N3CCN(C)CC3)c(F)cc3c(=O)c(C(=O)O)cn1c23 (stereo not shown)

>  <MIC90 (µg/mL)>
0.78

$$$$
>  <COMPOUND>
N[C@@H]1CCCCN(c2c(F)cc3c(=O)c(C(=O)O)cn(C4CC4)c3c2Cl)C1

>  <MIC90 (µg/mL)>
0.2

$$$$

Continue with the compound presented below.
stdin: Consider the compound shown here: C[C@@H]1CN(c2c(F)c(N)c3c(=O)c(C(=O)O)cn(C4CC4)c3c2F)C[C@H](C)N1 What is its recorded MIC90?
stdout: 0.39

###

Here, each record is paired with measured MIC90 data.
Tested on: Streptococcus pyogenes (Cook)
Assay: In vitro anti-bacterial activity (MIC90), Gram-positive bacteria
Format: cell-based
Conditions: Gram-positive reference strain
Numeric only. Scale: µg/mL

Known results for molecules:
>  <MOLECULE>
CC1COc2c(N3CCN(C)CC3)c(F)cc3c(=O)c(C(=O)O)cn1c23 (stereo not shown) [Ofloxacin, ofloxacin]

>  <MIC90 (µg/mL)>
0.78

$$$$
>  <MOLECULE>
CC1CCc2c(N3CCC(O)CC3)c(F)cc3c(=O)c(C(=O)O)cn1c23 (stereo not shown) [Nadifloxacin, nadifloxacin]

>  <MIC90 (µg/mL)>
0.78

$$$$
>  <MOLECULE>
C[C@@H]1CN(c2c(F)c(N)c3c(=O)c(C(=O)O)cn(C4CC4)c3c2F)C[C@H](C)N1 [Sparfloxacin, sparfloxacin]

>  <MIC90 (µg/mL)>
0.39

$$$$

Then there is this molecule:
stdin: # get_value(readout='MIC90', item= N[C@@H]1CCCCN(c2c(F)cc3c(=O)c(C(=O)O)cn(C4CC4)c3c2Cl)C1 [Compound Having Formula IV] )
stdout: 0.1
